Tested on: NCI-H322M lung
ASSAY_PROTOCOL: NCI-60 one-dose screen, 48 h
DETAILS: 10 µM unless noted
Description: Growth inhibition of the NCI-H322M human Non-Small Cell Lung tumor cell line is measured as a screen for anti-cancer activity. Cells are grown in 96 well plates and exposed to the test compound for 48 hours. Compounds are tested at a single concentration, which is 10^-5 M for most compounds. The reported endpoint is percent growth (GI% or GIPRCNT), where numbers from 0 - 100% represent growth inhibition, and numbers from -100% - 0 represent cell death. […]
About 83,000 compounds went through this panel and 20% of them were active in at least one assay; those are over-represented in the sample as a whole. Calls of active or inactive are those of the source. Rule for the calls: active = growth percent below 10; inactive = the rest.
Possible outcomes: y = active, n = inactive

COMPOUND: CN(C)c1ccc(/C=C/C(=O)c2cccc(Nc3nc(Nc4ccccc4)nc(Nc4ccccc4)n3)c2)cc1
CLASSIFICATION: n

COMPOUND: O=c1c2c3c(sc2n2c(-c4cc(-c5ccccc5)nn4-c4ccccc4)nnc2n1Cc1ccccc1)CCCC3
CLASSIFICATION: n

COMPOUND: COc1cc(/C=C2\C(=O)ON=C2C)cc(OC)c1OC
CLASSIFICATION: n

COMPOUND: CCN(CC)CCN1CC(O)=C(c2nc(-c3ccc(Cl)cc3)cs2)C1=N
CLASSIFICATION: n

COMPOUND: COC(=O)[C@]12CC[C@@H](C)[C@H](C)[C@@H]1C1=CC[C@@H]3[C@@]4(C)C(C=O)=C[C@@](C)(COC(C)=O)[C@@H]4C(=O)C[C@@]3(C)[C@]1(C)CC2
CLASSIFICATION: n

COMPOUND: COc1cc(OC)cc(C2CC(=O)Nc3c2c(C)nn3-c2nc3ccccc3[nH]2)c1 (centres undefined)
CLASSIFICATION: n

COMPOUND: CC1CC2Oc3ccc(Cl)cc3C(=O)N2O1 (centres undefined)
CLASSIFICATION: n

COMPOUND: COc1ccc(S(=O)(=O)NCCNc2nccc(-c3c(-c4cccc(F)c4)nc4sccn34)n2)cc1
CLASSIFICATION: n

COMPOUND: C=C1C(=O)O[C@H]2[C@H]1CC/C(COC(=O)C(=O)c1c[nH]c3ccc(OC)cc13)=C\CC[C@@]1(C)O[C@@H]21
CLASSIFICATION: y

COMPOUND: CCC1(C2CCCC2)NC(=O)NC1=O (centres undefined)
CLASSIFICATION: n

COMPOUND: Cc1ccc(NS(=O)(=O)c2ccc3c(c2)C2OCCC2C(c2ccc(C(=O)C(C)C)cc2)N3)cc1C (centres undefined)
CLASSIFICATION: n

COMPOUND: COc1cc(/C=N/Nc2ncc(-c3cc4cc5c(cc4o3)OCO5)s2)cc(OC)c1OC
CLASSIFICATION: n

COMPOUND: COc1ccc2c(c1)O/C(=C\c1cccc(OCC(=O)Nc3nc4ccccc4s3)c1)C2=O
CLASSIFICATION: n

COMPOUND: N#Cc1c(N)nn(C(=O)c2ccc(NC(=O)c3ccccn3)cc2)c1-c1ccc(Cl)cc1
CLASSIFICATION: n

COMPOUND: CNS(=O)(=O)c1n[nH]nc1-c1cc(C(C)(C)C)c(O)c(C(C)(C)C)c1
CLASSIFICATION: n

COMPOUND: O=c1[nH][n+](-c2ccc(Cl)cc2)no1
CLASSIFICATION: n

COMPOUND: Cn1c(-c2c(N)n(Cc3cccnc3)c3nc(C#N)c(C#N)nc23)nc2ccccc21
CLASSIFICATION: n

COMPOUND: COc1ccc2c(c1)CCCN2c1c2ccccc2nc2ccccc12
CLASSIFICATION: n

COMPOUND: O=S(=O)(O)c1ccc(N/N=C/c2ccccc2Cl)cc1
CLASSIFICATION: n

COMPOUND: COc1ccc2c(c1)O/C(=C\c1cccc(OCC(=O)Nc3nc(C)c(C)s3)c1)C2=O
CLASSIFICATION: n

COMPOUND: O=C(CCCCCCSc1nc(-c2ccccc2)cc(-c2ccc(Cl)cc2)n1)NO
CLASSIFICATION: n

COMPOUND: CC1(C)CC(=O)CC2(C1)N=C(N)Nc1nc3ccccc3n12 (centres undefined)
CLASSIFICATION: n

COMPOUND: CC/C=C\C[C@H](O)C/C=C1/C(=O)C=C[C@@H]1C/C=C\CCCC(=O)OC
CLASSIFICATION: n

COMPOUND: CN1CCN(C(=O)c2c3c(n4ccccc24)C(=O)c2ncccc2C3=O)CC1
CLASSIFICATION: n

COMPOUND: CC1=C([Se]CC(OC(=O)[C@@H](CO)NC(=O)OC(C)(C)C)C(=O)NC(C)(C)C)C(=O)c2ccccc2C1=O (some centres undefined)
CLASSIFICATION: y

COMPOUND: N#Cc1nc2c(S(=O)(=O)c3ccc(Cl)cc3)c(N)n(Nc3cccc(Cl)c3)c2nc1C#N
CLASSIFICATION: n

COMPOUND: Oc1ccc(CN2CCC(N3CCOCC3)CC2)c2cccnc12
CLASSIFICATION: n

COMPOUND: C=C1C(=O)O[C@H]2[C@H]1CC/C(COC(=O)C(=O)c1c[nH]c3ccccc13)=C\CC[C@@]1(C)O[C@@H]21
CLASSIFICATION: n

COMPOUND: Cn1c2c(c3ccc(Cl)c(Cl)c31)C(C#N)C1(CCNCC1)NC2=O (centres undefined)
CLASSIFICATION: n

COMPOUND: COc1ccc(-c2nc(SCC(=O)Nc3nc(-c4ccccc4)cs3)[nH]c(=O)c2C#N)cc1
CLASSIFICATION: n

COMPOUND: O=c1c2cc(F)ccc2sc2c(Nc3cccnc3)nc3ccccc3c12
CLASSIFICATION: n

COMPOUND: COc1cccc(-c2nn(-c3ccccc3)cc2-c2ccnc(NCCNC(=O)Nc3cccc(C(F)(F)F)c3)c2)c1
CLASSIFICATION: n

COMPOUND: CC(=O)OC1CCC2(C)C(=CC3C4CCC(=O)C4(C)CCC32)C1 (centres undefined)
CLASSIFICATION: n

COMPOUND: Cc1c(O)cc(-c2cnc(N/N=C\c3ccc(Cl)cc3)s2)c(O)c1C
CLASSIFICATION: n

COMPOUND: NS(=O)(=O)c1cnccc1Oc1cccc2cccnc12
CLASSIFICATION: n

COMPOUND: CN(C)CCCn1c(=O)c2ccccc2c2ccccc21
CLASSIFICATION: n

COMPOUND: O=C(O)c1ccc2c(c1Cl)C(=O)c1ccccc1C2=O
CLASSIFICATION: n

COMPOUND: CCCCn1c(=O)c2c(nc3n2CCCN3CCc2ccc(OCC(=O)NCCN(CC)CC)cc2)n(CCCC)c1=O
CLASSIFICATION: n

COMPOUND: COc1ccc(N=C(c2ccccc2)C2C(=O)c3ccccc3C2=O)cc1
CLASSIFICATION: n

Just for reference, PubChem BioAssay (NCI) is where these values come from.
